- System: p-cresol
- procedureSummary: Reduction of perceived intensity of p-cresol by MOCs (Table 16)
- Type: in vivo
- condition: concentration at which the MOC reduces the perceived intensity of p-cresol
assayMetric: p-cresol Dyn Conc

The observed p-cresol Dyn Conc for C/C=C/C(=O)C1C(C)=CCCC1(C)C (racemic) when tested with p-cresol stands at 0.0413 µg/L

Kindly note: p-cresol, Cc1ccc2c(c1)CC(C)(CO)C2 (racemic) [LILYFLORE, (+−)-2,5-DIMETHYL-2-INDANMETHANOL] , p-cresol Dyn Conc value reported: 0.22 µg/L

Reading of p-cresol Dyn Conc for CCCCCC1CCCC1=O (racemic) [Delphone, (+−)-2-pentylcyclopentanone] with p-cresol: 0.0488 µg/L

# `CCCCCC/C(C=O)=C\c1ccccc1` with p-cresol: p-cresol Dyn Conc is 1.34 µg/L

# p-cresol Dyn Conc measured on p-cresol for item `OCCc1ccccc1` = 0.318 µg/L

Note to self: p-cresol Dyn Conc of CC(C)=CCCC(C)CCO (racemic) [Citronellol BJ, (+−)-3,7-DIMETHYL-6-OCTEN-1-OL] with p-cresol was 0.11 µg/L

---

- Tested on: p-cresol
- procedureSummary: Reduction of perceived intensity of p-cresol by MOCs (Table 16)
- Format: in vivo
- condition: perceived intensity of p-cresol, at the Dyn Conc
Mark TRUE only for p-cresol Reduction values smaller than 60; exact matches and larger values are FALSE.

Task: # TODO verify p-cresol Reduction < 60 strictly for this molecule: Cc1ccc2c(c1)CC(C)(CO)C2 (racemic) [LILYFLORE, (+−)-2,5-DIMETHYL-2-INDANMETHANOL]
Result: FALSE

Task: Dear reviewer, please state whether `CCCCCC/C(C=O)=C\c1ccccc1` has p-cresol Reduction strictly beneath 60.
Result: TRUE

Task: Is the reported p-cresol Reduction for C/C=C/C(=O)C1C(C)=CCCC1(C)C (racemic) strictly below 60?
Result: FALSE

Task: Is p-cresol Reduction of CCCCCC1CCCC1=O (racemic) [Delphone, (+−)-2-pentylcyclopentanone] strictly below 60?
Result: FALSE

Task: Field: below-cutoff. Rule: recorded p-cresol Reduction strictly less than 60. Subject: `OCCc1ccccc1`
Result: TRUE

---

- Tested on: DMTS
- procedureSummary: Reduction of perceived intensity of DMTS by MOCs (Table 16)
- Assay type: in vivo
- condition: concentration at which the MOC reduces the perceived intensity of DMTS
Kindly state DMTS Dyn Conc for each of the entries shown.

// recorded DMTS Dyn Conc for CCCCCC1CCCC1=O (racemic) [Delphone, (+−)-2-pentylcyclopentanone] : 0.046 µg/L

Value of DMTS Dyn Conc reported for the molecule Cc1ccc2c(c1)CC(C)(CO)C2 (racemic) [LILYFLORE, (+−)-2,5-DIMETHYL-2-INDANMETHANOL] is 0.126 µg/L

Recorded result, OCCc1ccccc1 [Phenylethyl alcohol, 2-PHENYLETHANOL] , DMTS Dyn Conc: 1.03 µg/L

# DMTS Dyn Conc (molecule: CC(=O)OC(c1ccccc1)C(Cl)(Cl)Cl (racemic) [Rosinol Cryst] ) is 0.659 µg/L
